Study system: Nav1.7 (or SCN9A) channel; HEK cells stably transfected with hSCN9A (Homo sapiens, UniProt Q15858)
Construct: expressed in transfected cells
Sequence (Q15858 whole entry): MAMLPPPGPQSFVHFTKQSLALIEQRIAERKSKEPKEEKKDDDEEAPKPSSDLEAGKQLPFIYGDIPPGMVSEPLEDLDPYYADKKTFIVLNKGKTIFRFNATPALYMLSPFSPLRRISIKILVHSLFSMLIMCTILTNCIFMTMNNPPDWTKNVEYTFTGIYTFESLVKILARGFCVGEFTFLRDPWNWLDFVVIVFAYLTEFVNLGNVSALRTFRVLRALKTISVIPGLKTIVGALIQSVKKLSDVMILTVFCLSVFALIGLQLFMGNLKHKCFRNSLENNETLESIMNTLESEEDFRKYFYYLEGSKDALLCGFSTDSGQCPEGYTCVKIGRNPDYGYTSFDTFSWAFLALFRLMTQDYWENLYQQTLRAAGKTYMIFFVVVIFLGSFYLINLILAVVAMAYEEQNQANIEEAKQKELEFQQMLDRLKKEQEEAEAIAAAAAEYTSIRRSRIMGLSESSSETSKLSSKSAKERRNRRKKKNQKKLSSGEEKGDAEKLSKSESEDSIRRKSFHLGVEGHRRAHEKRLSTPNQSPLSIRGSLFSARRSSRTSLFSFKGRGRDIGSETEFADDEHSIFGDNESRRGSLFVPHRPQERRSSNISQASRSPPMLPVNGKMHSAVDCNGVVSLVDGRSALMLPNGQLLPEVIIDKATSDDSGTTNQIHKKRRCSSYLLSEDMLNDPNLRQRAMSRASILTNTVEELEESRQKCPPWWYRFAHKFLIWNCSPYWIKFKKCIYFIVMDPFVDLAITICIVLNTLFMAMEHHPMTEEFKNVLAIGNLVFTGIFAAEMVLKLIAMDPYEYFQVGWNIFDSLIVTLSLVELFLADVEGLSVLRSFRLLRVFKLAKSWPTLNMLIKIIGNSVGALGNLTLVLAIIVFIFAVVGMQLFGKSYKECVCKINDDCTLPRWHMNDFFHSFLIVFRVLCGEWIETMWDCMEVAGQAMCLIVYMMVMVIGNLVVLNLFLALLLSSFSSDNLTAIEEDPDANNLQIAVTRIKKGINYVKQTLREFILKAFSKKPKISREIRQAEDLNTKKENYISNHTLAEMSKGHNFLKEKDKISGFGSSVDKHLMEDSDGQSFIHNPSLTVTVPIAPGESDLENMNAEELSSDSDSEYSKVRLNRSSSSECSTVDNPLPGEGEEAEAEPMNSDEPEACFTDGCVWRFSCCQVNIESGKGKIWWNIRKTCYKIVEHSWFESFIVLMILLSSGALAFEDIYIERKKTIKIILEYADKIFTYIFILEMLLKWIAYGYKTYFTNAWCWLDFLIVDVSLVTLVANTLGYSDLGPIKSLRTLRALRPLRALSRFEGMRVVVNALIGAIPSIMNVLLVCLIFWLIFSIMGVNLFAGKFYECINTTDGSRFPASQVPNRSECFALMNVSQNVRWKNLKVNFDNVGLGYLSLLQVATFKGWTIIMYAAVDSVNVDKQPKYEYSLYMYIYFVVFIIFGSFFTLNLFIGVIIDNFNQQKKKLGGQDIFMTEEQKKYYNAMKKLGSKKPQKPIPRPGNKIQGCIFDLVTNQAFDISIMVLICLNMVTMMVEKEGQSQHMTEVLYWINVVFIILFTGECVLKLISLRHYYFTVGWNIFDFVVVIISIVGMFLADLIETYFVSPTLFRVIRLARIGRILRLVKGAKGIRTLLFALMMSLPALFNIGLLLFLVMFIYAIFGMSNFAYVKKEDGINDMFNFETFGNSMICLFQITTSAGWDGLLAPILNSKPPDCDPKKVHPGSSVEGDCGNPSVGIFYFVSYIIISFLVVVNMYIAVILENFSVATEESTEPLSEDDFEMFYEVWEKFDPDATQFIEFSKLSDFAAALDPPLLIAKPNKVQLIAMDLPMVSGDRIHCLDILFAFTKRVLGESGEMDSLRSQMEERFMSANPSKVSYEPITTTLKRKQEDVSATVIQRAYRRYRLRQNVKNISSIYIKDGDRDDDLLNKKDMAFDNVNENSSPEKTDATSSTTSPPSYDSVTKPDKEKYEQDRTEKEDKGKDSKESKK
Assay explanation: Nav1.7 block, PatchXpress 7000 automated whole-cell voltage clamp, estimated IC50 (EIC50)
Format: cell-based
Assay conditions: PatchXpress platform; hSCN9A HEK cells held at V1/2 of inactivation; estimated IC50
pIC50: −log10 of the molar value.
Quantity measured: pIC50

INSERT INTO assay_data (compound, quantity_measured, experimental_value) VALUES
  ('N#Cc1cc(S(=O)(=O)Nc2nncs2)ccc1Oc1ccccc1-c1ccccc1 [Example 104]', 'pIC50', 5.65),
  ('O=S(=O)(Nc1cscn1)c1ccc(Oc2ccccc2-c2ccccc2)c(F)c1 [Example 271]', 'pIC50', 5.94),
  ('N#Cc1cc(S(=O)(=O)Nc2ncns2)ccc1Oc1cccnc1-c1ccccc1 [Example 22]', 'pIC50', 5.50),
  ('COc1ccc(-n2cc(Oc3ccc(S(=O)(=O)Nc4ncns4)cc3C#N)c(C(C)C)n2)cc1 [Example 65]', 'pIC50', 4.91),
  ('Cc1ccc(-c2nc(N(C)C)ncc2Oc2ccc(S(=O)(=O)Nc3ncns3)cc2C#N)cc1 [Example 9]', 'pIC50', 5.46),
  ('O=S(=O)(Nc1nccs1)c1ccc(Oc2ccc(OCc3ccccc3)c(F)c2)c(F)c1 [Example 120]', 'pIC50', 4.43);

Data provenance: patent US8541588B2
